Test system: primary rat microglia;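 further: share of dead cells sized under 150 µm2 at 10 µM in fibrin-stimulated microglia HTS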
Details: rat
Counter-ions that a name gives are not always drawn.
assay-readout: Fibrin % cell toxicity (%)
// units = %; emit number, no label

Answered examples (2):
1. c1ccc(-c2ccc(C(c3ccccc3)n3ccnc3)cc2)cc1 (centres unmarked) | 1
2. CN/C(=N/CCSCc1nc[nH]c1C)NC#N | 0

Need Fibrin % cell toxicity, item N#Cc1ccc(C(c2ccc(C#N)cc2)n2cncn2)cc1
1

Which Fibrin % cell toxicity reading was recorded for the molecule N[C@@H](Cc1cc(I)c(Oc2ccc(O)c(I)c2)c(I)c1)C(=O)O ?
1

What value of Fibrin % cell toxicity has been reported for the following molecule? COC(=O)[C@H](c1ccccc1Cl)N1CCc2sccc2C1
1

Requested read-out: Fibrin % cell toxicity. Entry: CNCCCC12CCC(c3ccccc31)c1ccccc12 [Maprotiline hydrochloride, reference compound]
1

Which value of Fibrin % cell toxicity has been reported for CCN(CC)CC#CCOC(=O)C(O)(c1ccccc1)C1CCCCC1 (centres unmarked) in the records?
0

# query: Fibrin % cell toxicity of entry CC(C)(C(=O)c1cccnc1)c1cccnc1
1

Reference source for all entries: patent US20210330611A1
